Measured values drawn from PubChem BioAssay AID1224921 for this set.

Test: inhibitors of Clostridioides difficile proliferation – 4-point retest, confirmation (AID 1224921);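 also: plate controls were DMSO wells for no effect and levofloxacin 16 µg/mL wells for full effect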
Conditions: Clostridioides difficile clinical isolate growth, OD600, 24 h, stronger effect = lower value; at 30 µM unless noted
Screen size: about 1,400 compounds; about 350 (25%) were called active. Not shown: some 2% with an inconclusive outcome. Not all results are given here. Entries with a potency or affinity are not part of this list.
Form field: max activity (one value per entry).
attribute.measured: max activity

compound_structure=O=C(C[C@@H]1C=C[C@H](NC(=O)c2cccnc2)[C@H](CO)O1)NCc1ccc(Cl)c(Cl)c1 attribute_measured="max activity" value_observed="-13.7% [at 1.95 µM] (inactive)"
compound_structure=C[C@@H]1CCCCO[C@@H](CN(C)CC2CC2)[C@H](C)CN([C@H](C)CO)C(=O)c2cc(NC(=O)Nc3cccc4ccccc34)ccc2O1 attribute_measured="max activity" value_observed="12.9% (inactive)"
compound_structure=Cc1ccccc1S(=O)(=O)NCC[C@H]1CC[C@H](NC(=O)Nc2cccc(Cl)c2)[C@@H](CO)O1 attribute_measured="max activity" value_observed="13.2% (inactive)"
compound_structure=CCCC#Cc1ccc2c(c1)O[C@H](CN(C)Cc1ccncc1)[C@H](C)CN([C@H](C)CO)S2(=O)=O attribute_measured="max activity" value_observed="6.31% (inactive)"
compound_structure=O=C(N[C@H]1C=C[C@H](CC(=O)N2CCOCC2)O[C@H]1CO)c1cccc(F)c1 attribute_measured="max activity" value_observed="-11.2% [at 1.95 µM] (inactive)"
compound_structure=COc1ccccc1CNC(=O)C[C@@H]1C[C@@H]2c3cc(NC(=O)NC4CCCC4)ccc3O[C@@H]2[C@@H](CO)O1 attribute_measured="max activity" value_observed="-8.98% [at 1.8 µM] (inactive)"
compound_structure=CO[C@@H]1CN(C)C(=O)c2ccc(NC(=O)c3nc4ccccc4s3)cc2OC[C@@H](C)N(Cc2cccnc2)C[C@@H]1C attribute_measured="max activity" value_observed="29.5% (inactive)"
compound_structure=C[C@H](CO)N1C[C@H](C)[C@H](CN(C)S(=O)(=O)c2ccccc2)Oc2ccc(NC(=O)Nc3cccc4ccccc34)cc2C1=O attribute_measured="max activity" value_observed="-17.7% [at 8 µM] (inactive)"

* * *

Entries annotated with measured max activity
Test: inhibitors of Clostridioides difficile proliferation – 4-point retest, confirmation (AID 1224921);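 also: plate controls were DMSO wells for no effect and levofloxacin 16 µg/mL wells for full effect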
Details: Clostridioides difficile clinical isolate growth, OD600, 24 h, stronger effect = lower value; at 30 µM unless noted
In all, about 1,400 compounds went through this assay and about 350 (25%) were called active. Another 2% or so got no clear call; they are omitted. These entries were drawn from the full list. Measured potencies and affinities stand elsewhere.
attribute.measured: max activity

compound_structure=COCCNC(=O)C[C@H]1C[C@H]2c3cc(NC(=O)Nc4ccc(C(F)(F)F)cc4)ccc3O[C@H]2[C@H](CO)O1 attribute_measured="max activity" value_observed="-7.9% [at 1.95 µM] (inactive)"
compound_structure=C[C@H](NC(=O)C[C@H]1C=C[C@@H](NC(=O)CN2CCOCC2)[C@H](CO)O1)c1ccccc1 attribute_measured="max activity" value_observed="-8.28% [at 8 µM] (inactive)"
compound_structure=CCS(=O)(=O)Nc1ccc2c(c1)C(=O)N(C)C[C@H](OC)[C@H](C)CN(CC1CCCC1)[C@H](C)CO2 attribute_measured="max activity" value_observed="-9.54% [at 1.95 µM] (inactive)"
compound_structure=C[C@@H]1CN([C@@H](C)CO)C(=O)c2c(c3ccccc3n2C)-c2ccccc2CO[C@@H]1CN(C)S(=O)(=O)c1cccc(F)c1 attribute_measured="max activity" value_observed="6.96% [at 8 µM] (inactive)"
compound_structure=CCS(=O)(=O)Nc1ccc2c(c1)C(=O)N(C)C[C@@H](OC)[C@@H](C)CN(CC1CCCC1)[C@H](C)CO2 attribute_measured="max activity" value_observed="10.5% (inactive)"
compound_structure=CCCC(=O)Nc1ccc2c(c1)C(=O)N(C)C[C@@H](OC)[C@H](C)CN(CC1CCOCC1)[C@H](C)CO2 attribute_measured="max activity" value_observed="-10.1% (inactive)"
compound_structure=CO[C@H]1CN(C)C(=O)c2cc(NC(=O)c3ccccc3)ccc2OC[C@H](C)N(C)C[C@H]1C attribute_measured="max activity" value_observed="-10.6% [at 1.95 µM] (inactive)"
compound_structure=O=C(C[C@H]1C[C@H]2c3cc(NC(=O)Nc4ccc(C(F)(F)F)cc4)ccc3O[C@H]2[C@@H](CO)O1)NCC1CC1 attribute_measured="max activity" value_observed="-16.4% [at 0.5 µM] (inactive)"
